system under test: Gal(b1-3)GlcNAc(b1-2)Man(a1-3)[Gal(b1-3)GlcNAc(b1-2)Man(a1-6)]Man(b1-4)GlcNAc(b1-4)[Fuc(a1-6)]GlcNAc
experiment summary: glycan array binding signal (z-score within array); higher = stronger binding
study conditions: glycan notation: IUPAC condensed, linker removed
Only a selection was taken, and the strongest signals are over-represented in it overall.
So I've got a bunch of binders here, and I need their glycan array binding signal (z-score) values.
Give a plain numeric answer without units written out.

What value of glycan array binding signal (z-score) has been recorded for this entry: CAA (Caragana arborescens) (protein) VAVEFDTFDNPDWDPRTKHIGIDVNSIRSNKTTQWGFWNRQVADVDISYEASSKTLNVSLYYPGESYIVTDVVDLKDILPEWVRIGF 5.29

Need glycan array binding signal (z-score) of UDA (Urtica dioica), P11218 (protein) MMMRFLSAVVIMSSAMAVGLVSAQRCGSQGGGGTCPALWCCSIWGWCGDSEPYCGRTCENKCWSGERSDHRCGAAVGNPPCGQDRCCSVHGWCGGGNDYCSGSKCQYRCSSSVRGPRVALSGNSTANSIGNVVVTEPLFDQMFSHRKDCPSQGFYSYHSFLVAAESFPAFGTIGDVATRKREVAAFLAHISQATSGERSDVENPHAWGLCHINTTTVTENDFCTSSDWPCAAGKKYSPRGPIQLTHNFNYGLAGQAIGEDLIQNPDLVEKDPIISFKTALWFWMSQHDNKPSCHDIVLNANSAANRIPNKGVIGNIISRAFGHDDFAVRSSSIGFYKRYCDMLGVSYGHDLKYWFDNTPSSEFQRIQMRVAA , thanks. -0.156

Looking for the measured glycan array binding signal (z-score) of SUN4 (Saccharomyces cerevisiae), P53616 (protein) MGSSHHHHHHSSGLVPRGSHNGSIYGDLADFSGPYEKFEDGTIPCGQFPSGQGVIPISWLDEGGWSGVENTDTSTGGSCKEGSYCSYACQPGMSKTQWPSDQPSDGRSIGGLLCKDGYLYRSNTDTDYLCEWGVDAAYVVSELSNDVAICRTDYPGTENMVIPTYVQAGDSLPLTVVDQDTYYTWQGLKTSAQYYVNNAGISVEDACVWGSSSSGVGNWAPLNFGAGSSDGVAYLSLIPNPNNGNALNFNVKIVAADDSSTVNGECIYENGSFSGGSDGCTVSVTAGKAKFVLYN , can you help? -0.257
